target: MIWI (Mus musculus, UniProt Q9JMB7 1-862); assay: double-filter binding; piRNA-1 guide; 3.5 mM Mg2+; RBNS: 25 mM HEPES-KOH pH 7.9, 110 mM KOAc, 3.5 mM MgOAc, 0.01% Triton X-100, 2 mM DTT, 10% glycerol, 2.5 mg/ml BSA, 0.5 mg/ml yeast tRNA, 100 nM RNA library, 33 C 2 h; double-filter: 30 mM HEPES-KOH pH 7.5, 120 mM KOAc, 3.5 mM MgOAc, 2 mM DTT, 0.01% Triton X-100, 0.1 nM target, 33 C 2 h; settings: protein: recombinant; tags: SNAP, 3xFlag; label: 5' 32P; target pairs to guide g2-g10
Sequence (Q9JMB7 whole entry): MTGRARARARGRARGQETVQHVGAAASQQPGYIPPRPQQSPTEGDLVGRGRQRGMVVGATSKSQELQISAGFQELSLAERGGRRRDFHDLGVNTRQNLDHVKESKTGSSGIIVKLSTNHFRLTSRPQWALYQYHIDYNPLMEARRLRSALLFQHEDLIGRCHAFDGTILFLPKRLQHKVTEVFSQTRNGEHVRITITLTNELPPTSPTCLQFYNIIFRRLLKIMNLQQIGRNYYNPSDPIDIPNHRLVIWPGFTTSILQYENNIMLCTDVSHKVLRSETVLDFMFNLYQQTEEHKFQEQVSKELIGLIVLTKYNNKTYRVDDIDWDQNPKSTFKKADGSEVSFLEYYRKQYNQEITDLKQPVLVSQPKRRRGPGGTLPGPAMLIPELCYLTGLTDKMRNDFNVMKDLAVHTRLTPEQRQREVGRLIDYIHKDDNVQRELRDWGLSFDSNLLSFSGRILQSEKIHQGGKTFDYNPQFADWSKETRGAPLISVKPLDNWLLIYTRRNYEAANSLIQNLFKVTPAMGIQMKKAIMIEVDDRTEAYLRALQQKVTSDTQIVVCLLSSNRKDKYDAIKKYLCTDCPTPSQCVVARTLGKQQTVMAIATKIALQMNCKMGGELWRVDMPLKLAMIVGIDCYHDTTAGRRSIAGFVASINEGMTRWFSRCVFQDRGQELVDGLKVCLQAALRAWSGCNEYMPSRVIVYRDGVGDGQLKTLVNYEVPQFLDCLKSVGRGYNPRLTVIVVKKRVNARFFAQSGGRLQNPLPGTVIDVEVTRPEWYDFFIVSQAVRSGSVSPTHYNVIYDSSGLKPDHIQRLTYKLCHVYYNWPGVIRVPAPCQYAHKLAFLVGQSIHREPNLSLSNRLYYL
Observed Property: Kd (nM)
Numbers only, in nM.

Data request, read-out Kd, for AAAAAAAAAAAAAAAAAAAAUACUACCUCA (ssRNA, 5' monophosphate) [piRNA-1 g2-g10 target]
0.014

Attribution: paper PMC10338343
